Kindly state Total Cell Count for each of the entries shown.
System: HEK-293T
MEASUREMENT_DESCRIPTION: Multiplex assay against HEK293T
Type: toxicity, cell-based
RECORDED_CONDITIONS: human, 12 h, 10 µM, compound concentration 10 uM, replicate 2
The response must contain the number and no unit.

Task: Provide one value: measured Total Cell Count of COc1cc2c(NC3CCN(C(C)C)CC3)nc(N3CCC(F)(F)CC3)nc2cc1OCCCN1CCCC1
Result: 245

Task: Tell us which Total Cell Count value is on record for CCOc1cc(N2CCC(O)CC2)ccc1Nc1ncc2c(n1)N(C1CCCC1)CCC(=O)N2C
Result: 1779

Task: Give a short answer stating reported Total Cell Count for CCOc1cc2ncc(C#N)c(Nc3ccc(OCc4cccc(F)c4)c(Cl)c3)c2cc1NC(=O)/C=C/CN(C)C [HKI-357] .
Result: 1328

Task: Give the value of Total Cell Count reported for the following: N#Cc1cnc(Nc2cc(NC[C@H]3CNCCO3)c(C(F)(F)F)cn2)cn1 [SRA-737]
Result: 1376

====

Provide the recorded Population Pyknosed Nuclei (%) for the entries that follow.
Tested on: U2OS
MEASUREMENT_DESCRIPTION: Multiplex assay against U2OS
Assay type: toxicity, cell-based
RECORDED_CONDITIONS: human, 12 h, 10 µM, compound concentration 10 uM, replicate 2
Write down the numeric answer in % and omit the unit.

Task: Assign Population Pyknosed Nuclei (%) to the following record: CCN1CCN(Cc2ccc(NC(=O)c3ccc(C)c(Oc4ccnc5[nH]ccc45)c3)cc2C(F)(F)F)CC1.Cl.Cl.Cl.O
Result: 42

Task: # return recorded Population Pyknosed Nuclei (%) for entry Cl.Cl.NC1(c2ccc(-c3nc4ccn5c(=O)[nH]nc5c4cc3-c3ccccc3)cc2)CCC1
Result: 31

Task: Consider the compound CN(C)CCOc1ccc(-c2nc(-c3ccncc3)c(-c3ccc4c(c3)CC/C4=N\O)[nH]2)cc1 . State its measured Population Pyknosed Nuclei (%).
Result: 5

Task: Give recorded Population Pyknosed Nuclei (%). CC(C)(C)c1cnc(CSc2cnc(NC(=O)C3CCNCC3)s2)o1
Result: 17

Task: Please report the measured Population Pyknosed Nuclei (%) for Cl.Cl.Nc1ncnc2c1c(-c1cccc(OCc3ccccc3)c1)cn2[C@H]1C[C@@H](CN2CCC2)C1
Result: 29

Task: Read the entry CCOc1cc(N2CCC(O)CC2)ccc1Nc1ncc2c(n1)N(C1CCCC1)CCC(=O)N2C and write its reported Population Pyknosed Nuclei (%).
Result: 2

Task: Could you please provide reported Population Pyknosed Nuclei (%) for Nc1ccc(C(=O)Nc2cccc(-c3nc(N4CCOCC4)c4oc5ncccc5c4n3)c2)cn1 ? Thanks!
Result: 22

Task: Supply Population Pyknosed Nuclei (%) value. Item: CN(C)C/C=C/C(=O)Nc1cc2c(Nc3ccc(F)c(Cl)c3)ncnc2cc1O[C@H]1CCOC1.O=C(O)/C=C\C(=O)O.O=C(O)/C=C\C(=O)O [AFATINIB DIMALEATE]
Result: 35

====

System: HEK-293T
MEASUREMENT_DESCRIPTION: Multiplex assay against HEK293T
Assay type: toxicity, cell-based
RECORDED_CONDITIONS: human, 12 h, 1 µM, compound concentration 1 uM, replicate 1
Task for the reader: assign each of the following compounds its reported Population Mitotic Cells (%).
The reply should contain only the number, in %.

Task: Specify the recorded Population Mitotic Cells (%) for CCOc1cc2ncc(C#N)c(Nc3ccc(OCc4cccc(F)c4)c(Cl)c3)c2cc1NC(=O)/C=C/CN(C)C , system: HEK-293T.
Result: 81

Task: Look up and report Population Mitotic Cells (%), with HEK-293T as system, for COc1cc2c(NC3CCN(C(C)C)CC3)nc(N3CCC(F)(F)CC3)nc2cc1OCCCN1CCCC1
Result: 32

Task: Enter recorded Population Mitotic Cells (%) with HEK-293T for N#Cc1cnc(Nc2cc(NC[C@H]3CNCCO3)c(C(F)(F)F)cn2)cn1 here.
Result: 83

Task: Find Population Mitotic Cells (%) for CCc1cc2c(cc1CC)CC(NC[C@H](O)c1ccc(O)c3[nH]c(=O)ccc13)C2 on HEK-293T and write it down.
Result: 51

Task: Identify measured Population Mitotic Cells (%) obtained with HEK-293T for CNc1oc(-c2cccc3ccccc23)nc1C#N .
Result: 40

Task: Report Population Mitotic Cells (%) from HEK-293T testing of Cc1nc(Cc2cccc(C(F)(F)F)c2)sc1-c1ccc(C(N)=O)nc1 [TP-024n]
Result: 58

Task: Please tell me the measured Population Mitotic Cells (%) for CNC(=O)c1cc(Oc2ccc(NC(=O)Nc3cc(C(C)(C)C)nn3-c3ccc4ncccc4c3)c(F)c2)ccn1 ; system: HEK-293T.
Result: 77

Task: Jot down Population Mitotic Cells (%) (HEK-293T) of CCC(=O)O[C@]1(C(=O)SCF)[C@H](C)C[C@H]2[C@@H]3C[C@H](F)C4=CC(=O)C=C[C@]4(C)[C@@]3(F)[C@@H](O)C[C@@]21C [FLUTICASONE PROPIONATE] .
Result: 48

Task: Would you please give the reported Population Mitotic Cells (%) of c1ccc2oc(-c3csc(C4CCN(Cc5nc6ncccc6[nH]5)CC4)n3)cc2c1 with HEK-293T?
Result: 76

Task: With HEK-293T as the test system, provide measured Population Mitotic Cells (%) for this compound: CCn1c(-c2nonc2N)nc2cnc(Oc3cccc(NC(=O)c4ccc(OCCN5CCOCC5)cc4)c3)cc21 [GSK-269962A]
Result: 55

Task: Fill: Population Mitotic Cells (%) (HEK-293T) for this compound COc1cc2c(Nc3ccc(NC(=O)c4ccccc4)cc3)ncnc2cc1OCCCN1CCOCC1
Result: 74

Task: Enter measured Population Mitotic Cells (%), system HEK-293T, for the compound shown: COc1ccc(NS(=O)(=O)c2sc3ccc(Cl)cc3c2C)cc1N1CCNCC1.Cl
Result: 59

Task: Provide Population Mitotic Cells (%), system HEK-293T, entry CC(C)N1CCC(C)(C)c2cc(C#Cc3ccc(C(=O)O)cc3)ccc21
Result: 40

Task: State the measured Population Mitotic Cells (%) (HEK-293T) of CN(C)C/C=C/C(=O)Nc1cc2c(Nc3ccc(F)c(Cl)c3)ncnc2cc1O[C@H]1CCOC1.O=C(O)/C=C\C(=O)O.O=C(O)/C=C\C(=O)O [AFATINIB DIMALEATE]
Result: 73

Task: State, for HEK-293T, measured Population Mitotic Cells (%) of the compound listed here: Nc1nc2c(c(N3CCNCC3)n1)CCC1=C2[C@@H]2CCCC[C@@H]2O1
Result: 65

Task: Look up and report Population Mitotic Cells (%), with HEK-293T as system, for COc1cc(N2CCC(N(C)C)CC2)ccc1Nc1ncc(Cl)c(Nc2ccccc2P(C)(C)=O)n1
Result: 83

Task: Give Population Mitotic Cells (%) for Cl.Cl.NC1(c2ccc(-c3nc4ccn5c(=O)[nH]nc5c4cc3-c3ccccc3)cc2)CCC1 tested on HEK-293T.
Result: 74

====

Tested on: U2OS
MEASUREMENT_DESCRIPTION: Multiplex assay against U2OS
Assay type: toxicity, cell-based
RECORDED_CONDITIONS: human, 24 h, 1 µM, compound concentration 1 uM, replicate 2
Consider the following compounds; for each one, report its Population Fragmented Nuclei (%).
Hi! Could you send only the number? It should be in %, unit omitted.

Task: Look up and state reported Population Fragmented Nuclei (%) for Cl.Cl.Nc1ncnc2c1c(-c1cccc(OCc3ccccc3)c1)cn2[C@H]1C[C@@H](CN2CCC2)C1
Result: 13

Task: Name the recorded Population Fragmented Nuclei (%) of the compound listed here: COc1ccc(NS(=O)(=O)c2sc3ccc(Cl)cc3c2C)cc1N1CCNCC1.Cl
Result: 10

Task: Name the recorded Population Fragmented Nuclei (%) of the compound listed here: CN(C)C/C=C/C(=O)Nc1cc2c(Nc3ccc(F)c(Cl)c3)ncnc2cc1O[C@H]1CCOC1.O=C(O)/C=C\C(=O)O.O=C(O)/C=C\C(=O)O [AFATINIB DIMALEATE]
Result: 7

Task: Identify measured Population Fragmented Nuclei (%) associated with CC(C)N1CCC(C)(C)c2cc(C#Cc3ccc(C(=O)O)cc3)ccc21
Result: 18

Task: Item CCOc1cc(N2CCC(O)CC2)ccc1Nc1ncc2c(n1)N(C1CCCC1)CCC(=O)N2C : provide Population Fragmented Nuclei (%)
Result: 10

Task: Given the compound CCCn1c(=O)c2[nH]c(C34CC5CC(CC3C5)C4)nc2n(CCC)c1=O [ROLOFYLLINE] , write its reported Population Fragmented Nuclei (%).
Result: 7

Task: Give reported Population Fragmented Nuclei (%) value for Nc1ccc(C(=O)Nc2cccc(-c3nc(N4CCOCC4)c4oc5ncccc5c4n3)c2)cn1
Result: 28

Task: Give reported Population Fragmented Nuclei (%) value for COc1cc2c(NC3CCN(C(C)C)CC3)nc(N3CCC(F)(F)CC3)nc2cc1OCCCN1CCCC1
Result: 14

Task: Check the records and state Population Fragmented Nuclei (%) for COc1cc2c(Nc3ccc(NC(=O)c4ccccc4)cc3)ncnc2cc1OCCCN1CCOCC1
Result: 24

Task: Entry CNC(=O)c1cc(Oc2ccc(NC(=O)Nc3cc(C(C)(C)C)nn3-c3ccc4ncccc4c3)c(F)c2)ccn1 [REBASTINIB] needs its Population Fragmented Nuclei (%) filled in; supply it.
Result: 13

Task: For the compound CN(C)CCOc1ccc(-c2nc(-c3ccncc3)c(-c3ccc4c(c3)CC/C4=N\O)[nH]2)cc1 [SB590885] , report Population Fragmented Nuclei (%).
Result: 35

Task: Read off the recorded Population Fragmented Nuclei (%) for CCC(=O)O[C@]1(C(=O)SCF)[C@H](C)C[C@H]2[C@@H]3C[C@H](F)C4=CC(=O)C=C[C@]4(C)[C@@]3(F)[C@@H](O)C[C@@]21C [FLUTICASONE PROPIONATE]
Result: 3

Task: Answer with reported Population Fragmented Nuclei (%) of CC(C)Oc1ccc(C(=O)N[C@H](CNC(=O)CN(C)C)Cc2ccc(-c3cn4cccc([C@H](C)O)c4n3)cc2)cc1Cl [GSK-923295A]
Result: 13

Task: Return Population Fragmented Nuclei (%) (reported value) for this compound: O=C(O)c1ccc2cc(-c3ccc(O)c(C45CC6CC(CC(C6)C4)C5)c3)ccc2c1 [O-DEMETHYLATED ADAPALENE]
Result: 7

Task: Consider the compound CCn1c(-c2nonc2N)nc2cnc(Oc3cccc(NC(=O)c4ccc(OCCN5CCOCC5)cc4)c3)cc21 [GSK-269962A] . State its measured Population Fragmented Nuclei (%).
Result: 11

Task: Tell me its Population Fragmented Nuclei (%) given c1ccc2oc(-c3csc(C4CCN(Cc5nc6ncccc6[nH]5)CC4)n3)cc2c1 as the entry.
Result: 4

Task: Consider the compound CNc1oc(-c2cccc3ccccc23)nc1C#N and give its recorded Population Fragmented Nuclei (%).
Result: 28
